# assaySystem: recombinant human B1 receptors (Homo sapiens)
# Construct: host or cells: CHO (CHO-B1)
# protocolSummary: Functional assay: antagonist potency by cytosolic calcium measurement (plate reader fluorimeter) in CHO-B1 cells, agonist LysDABK
# Assay type: cell-based
# experimentalSetup: CHO-B1 cells, inhibition of LysDABK (EC80)-evoked [Ca2+]i elevation; read-out: B1 func.
testReadout: IC50

Per the record, COc1cc(C(=O)NC2(C(=O)NCc3ccc(-n4c(C(=O)N(C)C)c(Cl)c5ccccc54)cc3)CC2)on1 has IC50 of 20 to 100 nM

Per the record, Cc1noc(-c2c(Cl)c3ccccc3n2-c2ccc(CNC(=O)C3(NC(=O)c4ccnc(F)c4)CC3)cc2)n1 has IC50 of < 20 nM

Per the record, Cc1nc(-c2c(Cl)c3ccccc3n2-c2ccc(CNC(=O)C3(NC(=O)c4ccc(C#N)cc4)CC3)cc2)no1 has IC50 of 20 to 100 nM

Per the record, Cc1nc(-c2c(Cl)c3cc(F)ccc3n2-c2ccc(CNC(=O)C3(NC(=O)c4cc(C5CC5)on4)CC3)cc2)no1 has IC50 of < 20 nM

###

# assaySystem: recombinant human B1 receptors (Homo sapiens, UniProt P46663)
# Construct: host or cells: CHO (CHO-B1)
# Sequence (P46663 whole entry): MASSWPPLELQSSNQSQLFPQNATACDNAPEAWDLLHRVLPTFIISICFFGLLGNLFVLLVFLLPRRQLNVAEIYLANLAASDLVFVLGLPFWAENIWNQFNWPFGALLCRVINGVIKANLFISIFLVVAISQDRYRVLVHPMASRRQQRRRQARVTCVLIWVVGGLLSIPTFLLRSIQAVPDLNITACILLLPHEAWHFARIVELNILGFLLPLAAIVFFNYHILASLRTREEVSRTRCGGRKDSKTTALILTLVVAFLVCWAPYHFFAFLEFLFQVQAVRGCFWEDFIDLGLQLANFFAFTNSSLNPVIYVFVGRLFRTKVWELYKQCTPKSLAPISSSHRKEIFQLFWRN
# protocolSummary: Functional assay: antagonist potency by cytosolic calcium measurement (plate reader fluorimeter) in CHO-B1 cells, agonist LysDABK
# Type: cell-based
# experimentalSetup: CHO-B1 cells, inhibition of LysDABK (EC80)-evoked [Ca2+]i elevation; read-out: B1 func.
pIC50: −log10 of the molar value.
Exercise: for every item that follows, state its recorded pIC50.

// assay recombinant human B1 receptors (Homo sapiens, UniProt P46663), entry CC(=O)NC(CO)C(=O)NC1(C(=O)NCc2ccc(-n3c(-c4noc(C)n4)c(Cl)c4ccccc43)cc2)CC1 (stereo not shown) , pIC50 value = 6.30 to 7.00

// assay recombinant human B1 receptors (Homo sapiens, UniProt P46663), entry COc1ccc2c(c1)cc(C#N)n2-c1ccc(CNC(=O)C2(NC(=O)c3cc(OC)no3)CC2)cc1 , pIC50 value = > 7.70

// assay recombinant human B1 receptors (Homo sapiens, UniProt P46663), entry COc1cc(C(=O)NC2(C(=O)NCc3ccc(-n4c(-c5ncc(C)o5)c(Cl)c5ccccc54)cc3)CC2)on1 , pIC50 value = 7.00 to 7.70

// assay recombinant human B1 receptors (Homo sapiens, UniProt P46663), entry Cc1cc(C(=O)NC2(C(=O)NCc3ccc(-n4c(-c5noc(C)n5)c(Cl)c5ccccc54)cc3)CC2)no1 , pIC50 value = 7.00 to 7.70

// assay recombinant human B1 receptors (Homo sapiens, UniProt P46663), entry Cc1nc(-c2c(Cl)c3ccccc3n2-c2ccc(CNC(=O)C3(NC(=O)c4sc(C)nc4C)CC3)cc2)no1 , pIC50 value = 7.00 to 7.70

// assay recombinant human B1 receptors (Homo sapiens, UniProt P46663), entry Cc1nc(-c2cc3cc(F)ccc3n2-c2ccc(CNC(=O)C3(NC(=O)c4cncc(C(F)(F)F)c4)CC3)c(F)c2)no1 , pIC50 value = > 7.70

// assay recombinant human B1 receptors (Homo sapiens, UniProt P46663), entry Cc1nc(-c2cc3cc(F)ccc3n2-c2ccc(CNC(=O)C3(NC(=O)c4cccnc4F)CC3)cc2)no1 , pIC50 value = > 7.70
